src = the supplement of paper PMC10065799

Known phosphorylation enrichment of a selection of sequences
test system: c-Abl (mouse); assay: phosphorylation enrichment, bacterial display (enrichment ratio); higher = better substrate or ligand; peptides without Tyr show the background;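 further: 11-residue human phosphosite peptides and single-mutation variants displayed on the E. coli surface, counted by deep sequencing, each peptide's frequency after selection divided by its frequency in the unselected input library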;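 further: frequency after pTyr selection over input frequency; kinase dosed for 20-30% of maximal phosphorylation in three min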

// worked examples, phosphorylation enrichment included
[[record]]
sequence_code = "LIHTKCPQLLP [AHCY_Y143_Y143C]"
study_target = "c-Abl (mouse)"
result = 0.604

[[record]]
sequence_code = "FMRGMYFRMTD [PLA2G6_Y541_K545T_YF]"
study_target = "c-Abl (mouse)"
result = 0.715

[[record]]
sequence_code = "KDFTIHNPNLL [VANGL1_Y290_Y290H]"
study_target = "c-Abl (mouse)"
result = 0.574

[[record]]
sequence_code = "KKARAYRPGIE [FLNA_Y287_G288R]"
study_target = "c-Abl (mouse)"
result = 0.455

[[record]]
sequence_code = "NTGNFYDLFGG [PTPN11_Y63_D61N_YF]"
study_target = "c-Abl (mouse)"
result = 0.766

[[record]]
sequence_code = "TSPALYRLDLD [TRIL_Y352_A347T]"
study_target = "c-Abl (mouse)"
result = 0.741

[[record]]
sequence_code = "VIKDKYPKVRF [APTX_Y209_A212V_YF]"
study_target = "c-Abl (mouse)"
result = 0.56

[[record]]
sequence_code = "YGMQLYQNYMH [GRB14_Y347]"
study_target = "c-Abl (mouse)"
result = 1.2

[[record]]
sequence_code = "KWHREYNSKYV [RICTOR_Y835]"
study_target = "c-Abl (mouse)"
result = 0.461

[[record]]
sequence_code = "GLSDLYVKIHL [SYT2_Y309_P308L]"
study_target = "c-Abl (mouse)"
result = 0.94


The recorded phosphorylation enrichment for NALAQYQEMEK [BBS4_Y395] is 0.512

The recorded phosphorylation enrichment for AVISVYDLVVV [PSEN1_Y256_A260V] is 1

The recorded phosphorylation enrichment for KRISCYEARYQ [PFKFB3_Y194_S197R] is 0.526

The recorded phosphorylation enrichment for IEENGYNTYAS [FGF10_Y161] is 0.64

The recorded phosphorylation enrichment for SSWPDYVRPLP [HSPB1_Y54_G53D] is 0.808

The recorded phosphorylation enrichment for QYRFIYMAVQH [PTPN11_Y515] is 0.973

The recorded phosphorylation enrichment for IFHLSYLHNCE [PDE6B_Y227_YF] is 0.782

The recorded phosphorylation enrichment for CTTVHYNYMCN [TP53_Y234_I232V] is 0.557

The recorded phosphorylation enrichment for NTTIHYNFMCN [TP53_Y234_C229N_YF] is 0.782

The recorded phosphorylation enrichment for GHLFAYNWISI [BEST1_Y227_D228N_YF] is 0.58

The recorded phosphorylation enrichment for GEDEPYAEPFA [APBA1_Y183_S184A_YF] is 0.814

The recorded phosphorylation enrichment for SEPDLYCDPRG [PKP1_Y160] is 1.31

The recorded phosphorylation enrichment for SENFTYIWWLN [PSG4_Y271_K267E_YF] is 0.96
